src = patent US10144715B2

Recorded measurements of log10(EC50), one per entry
Biological target: Gal4 DNA binding domain fused to the LBD of LXRβ in HEK293 cells (Homo sapiens (Human), UniProt P55055)
Sequence (P55055 222-460 limits assumed): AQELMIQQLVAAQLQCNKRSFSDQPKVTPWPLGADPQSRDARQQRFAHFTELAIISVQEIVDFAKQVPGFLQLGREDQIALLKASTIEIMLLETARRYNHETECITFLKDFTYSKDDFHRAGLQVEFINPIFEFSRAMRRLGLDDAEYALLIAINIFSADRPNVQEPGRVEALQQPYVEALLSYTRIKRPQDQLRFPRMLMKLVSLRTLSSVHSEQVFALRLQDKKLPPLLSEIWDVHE
Experiment: cell-based
Transform log10 | Measure EC50 | Unit nM

Examples with answers:
> print(dat)
                                   compound  measured
1  CC(C)[C@@H]1CN(c2cccc(S(N)(=O)=O)c2)CCN1c1nccc(C(F)(F)F)n1      1.77
2  CS(=O)(=O)c1cccc(N2CCN(Cc3ccc(C(F)(F)F)c(Br)c3)C(c3ccccc3)C2)c1 (stereo not shown)      3.08
3  CC(C)[C@@H]1CN(c2ccc(F)c(S(C)(=O)=O)c2)CCN1C(=O)OC1CC(F)(F)C1(F)F (stereo partly shown)      2.43
4  Cc1coc(-c2ccc(N3CCN(c4ncc(CO)c(C(F)(F)F)n4)[C@H](C(C)C)C3)cc2S(C)(=O)=O)n1      2.61

What does the data say about its log10(EC50)? Entry: Cc1cc(C#N)nc(N2CCN(c3ccc(F)c(S(C)(=O)=O)c3)C[C@H]2C(C)C)n1
3.18

Also check Cc1nc(N2CCN(c3ccc(F)c(S(C)(=O)=O)c3)C[C@H]2C(C)C)ncc1Br
2.15
